Tested on: CEM cells HIV-1 protection, formazan growth assay
Test method notes: NCI AIDS Antiviral Assay
Experimental context: measured here: growth of uninfected CEM cells
Measured attribute: IC50

Worked examples follow.
- Compound: "CC(C)[C@@H]1CC[C@@H](C)C[C@H]1OC(=O)/C=C1\\C(C(=O)O[C@@H]2C[C@H](C)CC[C@H]2C(C)C)[C@H]2C=C[C@@H]1O2 (some centres undefined)"
  Study system: "CEM cells HIV-1 protection, formazan growth assay"
  IC50: "> 200 µM"
- Compound: "O=C(OCCNC(=O)N1CCOCC1)OCCNC(=O)N1CCOCC1"
  Study system: "CEM cells HIV-1 protection, formazan growth assay"
  IC50: "> 200 µM"
- Compound: "O=C(Nc1cc2c(=O)[nH]c3ccccc3c2oc1=O)c1cnccn1"
  Study system: "CEM cells HIV-1 protection, formazan growth assay"
  IC50: "> 100 µM"

Turning to the following compound.
-- ask Given "Cc1nc(SCC(N)=O)c2sc(=S)n(-c3ccccc3)c2n1" , state its recorded IC50.
-- reply > 200 µM

---

Listed here are compounds together with their documented IC50.
Tested on: CEM cells HIV-1 protection, formazan growth assay
Test method notes: NCI AIDS Antiviral Assay
Experimental context: measured here: growth of uninfected CEM cells
Where a SMILES comes first, the peptide text is derived from it.

Worked examples follow.
- Compound: "CC(=O)Nc1ccc(C(=O)NN2C(=O)CSC2c2ccc(O)cc2)cc1 (stereo not given)"
  IC50: "> 36.3 µM"
- Compound: "COc1nccnc1NS(=O)(=O)c1ccc(N)cc1"
  IC50: "> 200 µM"
- Compound: "O=S(=O)(CCn1c(Sc2ccccc2)c(Sc2ccccc2)c2ccccc21)c1ccccc1"
  IC50: "> 200 µM"
- Compound: "COc1cc2c3c(c1)SCC(=O)N3CCN2"
  IC50: "> 100 µM"
- Compound: "O=C(CSc1nnc(-c2ccc(N=Cc3ccc(Cl)cc3)cc2)o1)Nc1cccc(Cl)c1"
  IC50: "> 74.1 µM"
- Compound: "CCCCc1ccc(N2C(=O)c3cc(C)cnc3S2(=O)=O)cc1"
  IC50: "> 200 µM"
- Compound: "CC(NC(=O)CNC(=O)C(N)CO)C(=O)NC(CCC(=O)O)C(=O)NC(CCC(=O)O)C(=O)NC(CO)C(=O)NC(CCCCN)C(=O)NC(CCC(=O)O)C(=O)NC(CCC(N)=O)C(=O)NC(CO)C(=O)N1CCCC1C(=O)NC(CC(N)=O)C(=O)NC(C)C(=O)NC(Cc1cnc[nH]1)C(=O)NC(CO)C(=O)O (stereo not given) (H-SGAEESKEQSPNAHS-OH; configuration not given here)"
  IC50: "> 100 µM"
- Compound: "S=c1[nH]nc2nc(Nc3ccccc3)nc(Nc3ccccc3)n12"
  IC50: "> 21.4 µM"
- Compound: "O=C(O)COc1ccc(Cl)cc1Cc1cc(Cl)ccc1OCC(=O)O"
  IC50: "89.1 µM"
- Compound: "NNC(=O)CCC(=O)Nc1cc(Cl)c(Cl)cc1Cl"
  IC50: "> 115 µM"

-- ask Given "COc1ccc(N=Cc2ccc(N(CCC#N)S(=O)(=O)c3ccccc3)cc2C)cc1" , state its recorded IC50.
-- reply 112 µM

-- ask Given CC(NC(=O)OCc1ccccc1)NC(=O)OC(C)(C)C (stereo not given) , state its recorded IC50.
-- reply 102 µM

-- ask Given O=S(=O)(CCC[C@H]1[C@@H](CCOCc2ccccc2)C2CCCN1O2)c1ccccc1 (stereo not given in full) , state its recorded IC50.
-- reply 95.5 µM

-- ask Given O=C1NC(=O)[C@@H](OCC2CCCCC2)[C@@H]2OCC3OC(C(O)C3O)C12 (stereo not given in full) , state its recorded IC50.
-- reply > 200 µM

-- ask Given "Cc1cc(=O)n(CC(=O)O)c2ccccc12" , state its recorded IC50.
-- reply 105 µM

-- ask Given COc1cccc2c1C(=O)c1c(O)c3c(c(O)c1C2=O)CC(O)(C(O)CO)CC3OC1CC(N2CCOCC2)C(O)C(C)O1 (stereo not given) , state its recorded IC50.
-- reply 0.00355 µM

-- ask Given "CC(=O)Oc1ccc(Nn2c3ccccc3c3ccccc32)c(C)c1" , state its recorded IC50.
-- reply 11.7 µM

-- ask Given Cc1ccc2nc(NC(=O)C(=O)C(C#N)c3nc4ccccc4s3)sc2c1 (stereo not given) , state its recorded IC50.
-- reply > 66.1 µM

-- ask Given CC(C)[C@](O)(C(=O)OCC1CCN2CC[C@@H](O)C12)[C@H](C)O (stereo not given in full) , state its recorded IC50.
-- reply > 200 µM

-- ask Given "COC(=O)CSC(=S)Nc1nnc(NC(=S)SCOC(C)=O)n1C(=S)SCC(=O)OC" , state its recorded IC50.
-- reply > 200 µM

-- ask Given "CN(C)CC(CN(C)C)c1cccc(C(CN(C)C)CN(C)C)n1" , state its recorded IC50.
-- reply > 741 µM

-- ask Given "COC(=O)c1c/c(=N\NC(=O)CC(=O)Nc2ccc(C)cc2)c2ccccc2o1" , state its recorded IC50.
-- reply > 631 µM

-- ask Given CC(C)(C)C1CCP(=O)(c2ccccc2)CC1 (stereo not given) , state its recorded IC50.
-- reply > 200 µM

-- ask Given "N#Cc1[nH]c(=O)n(-c2ccc(Cl)cc2)c1N" , state its recorded IC50.
-- reply > 200 µM

-- ask Given "COc1ccc(/C(C)=N\NS(=O)(=O)c2ccc(NC(C)=O)cc2)cc1" , state its recorded IC50.
-- reply > 182 µM

-- ask Given "C/C=C(\C)C(=O)c1c(OCC)cc(OCC)c2c(CCC)cc(=O)oc12" , state its recorded IC50.
-- reply 1.91 µM
